# Ki annotations
# tested.target: recombinant rat homomeric GluK3 (Rattus norvegicus, UniProt P42264)
# Sequence (P42264 32-919): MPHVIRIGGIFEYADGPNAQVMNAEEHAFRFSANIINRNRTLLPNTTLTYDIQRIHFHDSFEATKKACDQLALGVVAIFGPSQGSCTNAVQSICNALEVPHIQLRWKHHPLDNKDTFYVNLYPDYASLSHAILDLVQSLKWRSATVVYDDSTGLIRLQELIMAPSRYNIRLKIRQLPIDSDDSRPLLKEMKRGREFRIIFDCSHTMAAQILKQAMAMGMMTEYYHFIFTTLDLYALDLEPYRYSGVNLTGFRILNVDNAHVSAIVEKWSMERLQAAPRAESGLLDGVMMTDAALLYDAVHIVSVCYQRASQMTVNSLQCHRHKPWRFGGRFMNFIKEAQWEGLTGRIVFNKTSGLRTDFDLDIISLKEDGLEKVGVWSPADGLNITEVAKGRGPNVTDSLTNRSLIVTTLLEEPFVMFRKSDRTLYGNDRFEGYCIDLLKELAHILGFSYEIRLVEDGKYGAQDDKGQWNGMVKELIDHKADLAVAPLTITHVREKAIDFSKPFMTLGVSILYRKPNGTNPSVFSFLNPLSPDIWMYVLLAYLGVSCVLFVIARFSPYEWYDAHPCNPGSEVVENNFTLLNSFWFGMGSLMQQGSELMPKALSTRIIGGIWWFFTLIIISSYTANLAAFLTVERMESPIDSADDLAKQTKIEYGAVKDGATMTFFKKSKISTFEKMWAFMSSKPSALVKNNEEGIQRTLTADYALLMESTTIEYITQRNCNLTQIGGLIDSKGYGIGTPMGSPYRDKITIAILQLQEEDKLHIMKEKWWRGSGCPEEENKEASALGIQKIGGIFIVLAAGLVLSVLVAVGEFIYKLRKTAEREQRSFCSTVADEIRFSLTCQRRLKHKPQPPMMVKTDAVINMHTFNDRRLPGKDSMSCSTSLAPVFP
# assay.info: Binding affinity at cloned homomeric GluK3 expressed in sf9 cells, [3H]-KA
# condition.notes: Ki GluK3

INSERT INTO assay_data (compound, tested_target, readout, result) VALUES
  ('Cl.O=C(O)[C@H]1NCC[C@@H]1[C@H](C(=O)O)c1ccccc1 [3d-s2]', 'recombinant rat homomeric GluK3 (Rattus norvegicus, UniProt P42264)', 'Ki', '> 100 µM');

Write down Ki measured for item Cl.O=C(O)[C@H]1NCC[C@@H]1[C@@H](C(=O)O)c1ccccc1 [3d-s1]
> 100 µM

###

# tested.target: human EAAT1 (Homo sapiens)
# Sequence (P43003 whole entry): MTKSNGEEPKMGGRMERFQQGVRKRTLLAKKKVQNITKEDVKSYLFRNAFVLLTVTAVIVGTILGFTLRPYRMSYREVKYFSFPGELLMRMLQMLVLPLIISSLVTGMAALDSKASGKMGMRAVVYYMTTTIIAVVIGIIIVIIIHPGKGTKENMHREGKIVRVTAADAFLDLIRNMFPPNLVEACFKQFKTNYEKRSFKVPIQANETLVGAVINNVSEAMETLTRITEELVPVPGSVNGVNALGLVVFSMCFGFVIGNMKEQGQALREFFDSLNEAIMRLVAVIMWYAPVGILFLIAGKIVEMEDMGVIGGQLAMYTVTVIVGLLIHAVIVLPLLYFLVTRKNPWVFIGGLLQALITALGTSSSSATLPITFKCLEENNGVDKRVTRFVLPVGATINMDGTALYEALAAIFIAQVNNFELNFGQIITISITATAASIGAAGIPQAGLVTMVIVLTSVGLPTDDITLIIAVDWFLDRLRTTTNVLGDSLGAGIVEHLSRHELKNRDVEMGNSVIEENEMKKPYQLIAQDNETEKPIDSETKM
# assay.info: [3H]-D-Asp uptake assay, EAAT1 stably expressed in HEK293 cells
# Type: cell-based
# condition.notes: IC50 EAAT1
readout: IC50

INSERT INTO measurements (compound, readout, result) VALUES
  ('Cl.O=C(O)CCC(C(=O)O)[C@@H]1CCN[C@H]1C(=O)O (relative stereo)', 'IC50', '> 300 µM'),
  ('Cl.O=C(O)CC(C(=O)O)[C@@H]1CCN[C@H]1C(=O)O (relative stereo)', 'IC50', '> 1000 µM'),
  ('Cl.O=C(O)[C@H]1NCC[C@@H]1[C@@H](C(=O)O)c1ccccc1', 'IC50', '> 300 µM'),
  ('Cl.O=C(O)C(Cc1c[nH]nn1)[C@@H]1CCN[C@H]1C(=O)O (stereo partly drawn) [3p-d1]', 'IC50', '> 300 µM'),
  ('CC(C)C(C(=O)O)[C@@H]1CCN[C@H]1C(=O)O.Cl (relative stereo)', 'IC50', '45 µM');

Write down IC50 measured for item Cl.O=C(O)C(Cc1c[nH]nn1)[C@@H]1CCN[C@H]1C(=O)O (mixture of isomers) [3p]
> 300 µM

Write down IC50 measured for item Cl.O=C(O)[C@H]1NCC[C@@H]1[C@H](C(=O)O)c1ccccc1
> 300 µM

Write down IC50 measured for item Cl.O=C(O)C(CCCO)[C@@H]1CCN[C@H]1C(=O)O (relative stereo)
> 300 µM

Write down IC50 measured for item Cl.O=C(O)C(CCc1ccccc1)[C@@H]1CCN[C@H]1C(=O)O (relative stereo)
> 300 µM

###

# tested.target: human EAAT2 (Homo sapiens, UniProt P43004)
# assay.info: [3H]-D-Asp uptake assay, EAAT2 stably expressed in HEK293 cells
# Assay type: cell-based
readout: IC50

Record excerpt, results attached:
INSERT INTO measurements (molecule, result) VALUES
  ('Cl.O=C(O)C(CCCO)[C@@H]1CCN[C@H]1C(=O)O (relative stereo)', '> 300 µM'),
  ('Cl.O=C(O)[C@H]1NCC[C@@H]1[C@H](C(=O)O)c1ccccc1', '> 300 µM'),
  ('Cl.O=C(O)C(CCc1ccccc1)[C@@H]1CCN[C@H]1C(=O)O (relative stereo)', '> 300 µM');

Write down IC50 measured for item O=C([O-])C(CCO)[C@@H]1CCN[C@H]1C(=O)[O-].[Na+].[Na+] (relative stereo)
> 300 µM

Write down IC50 measured for item CC[C@@H](C(=O)O)[C@H]1CCN[C@@H]1C(=O)O.Cl
> 300 µM

Write down IC50 measured for item Cl.O=C(O)CC(C(=O)O)[C@@H]1CCN[C@H]1C(=O)O (relative stereo)
> 1000 µM

Write down IC50 measured for item Cl.O=C(O)C(Cc1c[nH]nn1)[C@@H]1CCN[C@H]1C(=O)O (stereo partly drawn) [3p-d1]
> 300 µM

Write down IC50 measured for item Cl.Cl.NC(C(=O)O)[C@@H]1CCN[C@H]1C(=O)O (relative stereo)
> 300 µM

Write down IC50 measured for item CC[C@H](C(=O)O)[C@H]1CCN[C@@H]1C(=O)O.Cl
~30 µM

Write down IC50 measured for item Cl.O=C(O)C(Cc1c[nH]nn1)[C@@H]1CCN[C@H]1C(=O)O (mixture of isomers) [3p]
> 300 µM

Write down IC50 measured for item Cl.O=C(O)[C@H]1NCC[C@@H]1[C@@H](C(=O)O)c1ccccc1
~50 µM

Write down IC50 measured for item Cl.O=C(O)CCC(C(=O)O)[C@@H]1CCN[C@H]1C(=O)O (relative stereo)
> 300 µM

Write down IC50 measured for item Cl.O=C(O)C(Cc1ccccc1)[C@@H]1CCN[C@H]1C(=O)O (relative stereo)
20 µM

Write down IC50 measured for item CC(C)C(C(=O)O)[C@@H]1CCN[C@H]1C(=O)O.Cl (relative stereo)
15.8 µM

Write down IC50 measured for item COC(C(=O)O)[C@@H]1CCN[C@H]1C(=O)O.Cl (relative stereo) [3j-d1]
~300 µM

###

# tested.target: recombinant rat homomeric GluK1 (Rattus norvegicus)
# Sequence (P22756 31-949): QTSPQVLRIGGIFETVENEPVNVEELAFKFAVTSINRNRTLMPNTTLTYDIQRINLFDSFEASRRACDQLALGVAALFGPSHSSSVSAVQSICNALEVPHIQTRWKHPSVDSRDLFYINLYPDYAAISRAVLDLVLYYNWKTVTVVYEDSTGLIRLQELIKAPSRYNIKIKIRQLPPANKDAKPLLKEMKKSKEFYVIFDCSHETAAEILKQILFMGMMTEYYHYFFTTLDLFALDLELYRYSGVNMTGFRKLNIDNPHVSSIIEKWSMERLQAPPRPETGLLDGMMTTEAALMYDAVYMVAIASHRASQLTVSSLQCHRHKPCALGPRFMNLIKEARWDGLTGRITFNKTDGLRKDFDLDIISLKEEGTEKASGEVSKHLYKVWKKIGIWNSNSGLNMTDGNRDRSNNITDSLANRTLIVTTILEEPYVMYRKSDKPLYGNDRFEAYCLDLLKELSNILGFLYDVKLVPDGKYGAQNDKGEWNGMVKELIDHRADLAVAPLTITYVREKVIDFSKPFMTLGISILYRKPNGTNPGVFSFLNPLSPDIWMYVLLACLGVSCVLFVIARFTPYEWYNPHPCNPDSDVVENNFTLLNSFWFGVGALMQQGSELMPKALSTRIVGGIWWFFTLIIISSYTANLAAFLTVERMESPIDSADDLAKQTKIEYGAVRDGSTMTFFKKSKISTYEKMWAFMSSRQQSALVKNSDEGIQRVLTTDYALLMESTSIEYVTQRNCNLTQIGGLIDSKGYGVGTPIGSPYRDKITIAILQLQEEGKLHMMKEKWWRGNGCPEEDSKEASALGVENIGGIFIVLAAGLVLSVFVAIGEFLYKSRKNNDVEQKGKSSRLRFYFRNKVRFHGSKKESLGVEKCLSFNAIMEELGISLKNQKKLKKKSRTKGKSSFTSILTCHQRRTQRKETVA
# assay.info: Binding affinity at cloned homomeric GluK1 expressed in sf9 cells, [3H]-NF608
readout: Ki

INSERT INTO measurements (compound, readout, result) VALUES
  ('COC(C(=O)O)[C@@H]1CCN[C@H]1C(=O)O.Cl (relative stereo) [3j-d1]', 'Ki', '> 100 µM'),
  ('Cl.O=C(O)CC(C(=O)O)[C@@H]1CCN[C@H]1C(=O)O (relative stereo)', 'Ki', '2 µM'),
  ('Cl.O=C(O)[C@H]1NCC[C@@H]1[C@H](C(=O)O)c1ccccc1', 'Ki', '> 100 µM'),
  ('Cl.O=C(O)C(Cc1c[nH]nn1)[C@@H]1CCN[C@H]1C(=O)O (mixture of isomers) [3p]', 'Ki', '14 µM');

Write down Ki measured for item Cl.O=C(O)[C@H]1NCC[C@@H]1[C@@H](C(=O)O)c1ccccc1
> 100 µM

Write down Ki measured for item Cl.O=C(O)C(Cc1ccccc1)[C@@H]1CCN[C@H]1C(=O)O (relative stereo)
46 µM

Write down Ki measured for item Cl.O=C(O)C(Cc1c[nH]nn1)[C@@H]1CCN[C@H]1C(=O)O (stereo partly drawn) [3p-d1]
~100 µM

Write down Ki measured for item Cl.O=C(O)C(CCc1ccccc1)[C@@H]1CCN[C@H]1C(=O)O (relative stereo)
> 100 µM

Write down Ki measured for item CC(C)C(C(=O)O)[C@@H]1CCN[C@H]1C(=O)O.Cl (relative stereo)
> 100 µM

Write down Ki measured for item O=C([O-])C(CCO)[C@@H]1CCN[C@H]1C(=O)[O-].[Na+].[Na+] (relative stereo)
> 100 µM

Write down Ki measured for item CC[C@@H](C(=O)O)[C@H]1CCN[C@@H]1C(=O)O.Cl
41 µM

Write down Ki measured for item Cl.O=C(O)CCC(C(=O)O)[C@@H]1CCN[C@H]1C(=O)O (relative stereo)
> 100 µM

Write down Ki measured for item CC[C@H](C(=O)O)[C@H]1CCN[C@@H]1C(=O)O.Cl
18 µM

Write down Ki measured for item Cl.O=C(O)C(CCCO)[C@@H]1CCN[C@H]1C(=O)O (relative stereo)
> 100 µM

Write down Ki measured for item Cl.Cl.NC(C(=O)O)[C@@H]1CCN[C@H]1C(=O)O (relative stereo)
> 100 µM

###

# tested.target: UniProt P43003
# assay.info: [3H]-D-Asp uptake assay, EAAT1 stably expressed in HEK293 cells
# Format: cell-based
# condition.notes: pIC50 EAAT1 (mean ± SEM, in brackets)
readout: pIC50
Scale for pIC50: -log10 of concentration given in mol/L; no unit attached.

Write down pIC50 measured for item CC(C)C(C(=O)O)[C@@H]1CCN[C@H]1C(=O)O.Cl (relative stereo)
4.34

###

# tested.target: human EAAT1 (Homo sapiens)
# assay.info: [3H]-D-Asp uptake assay, EAAT1 stably expressed in HEK293 cells
# Type: cell-based
# condition.notes: IC50 EAAT1, HEK293 cells, [3H]-D-Asp uptake
readout: pIC50
Scale for pIC50: -log10 of concentration given in mol/L; no unit attached.

Using human EAAT1 (Homo sapiens) as the test system, report measured pIC50 of Cl.O=C(O)C(Cc1ccccc1)[C@@H]1CCN[C@H]1C(=O)O (relative stereo) [3g] .
4.47

###

# tested.target: GluN1/GluN2A (Rattus norvegicus, UniProt P35439+Q00959)
# Sequence (Q00959 23-1464, other chains not shown): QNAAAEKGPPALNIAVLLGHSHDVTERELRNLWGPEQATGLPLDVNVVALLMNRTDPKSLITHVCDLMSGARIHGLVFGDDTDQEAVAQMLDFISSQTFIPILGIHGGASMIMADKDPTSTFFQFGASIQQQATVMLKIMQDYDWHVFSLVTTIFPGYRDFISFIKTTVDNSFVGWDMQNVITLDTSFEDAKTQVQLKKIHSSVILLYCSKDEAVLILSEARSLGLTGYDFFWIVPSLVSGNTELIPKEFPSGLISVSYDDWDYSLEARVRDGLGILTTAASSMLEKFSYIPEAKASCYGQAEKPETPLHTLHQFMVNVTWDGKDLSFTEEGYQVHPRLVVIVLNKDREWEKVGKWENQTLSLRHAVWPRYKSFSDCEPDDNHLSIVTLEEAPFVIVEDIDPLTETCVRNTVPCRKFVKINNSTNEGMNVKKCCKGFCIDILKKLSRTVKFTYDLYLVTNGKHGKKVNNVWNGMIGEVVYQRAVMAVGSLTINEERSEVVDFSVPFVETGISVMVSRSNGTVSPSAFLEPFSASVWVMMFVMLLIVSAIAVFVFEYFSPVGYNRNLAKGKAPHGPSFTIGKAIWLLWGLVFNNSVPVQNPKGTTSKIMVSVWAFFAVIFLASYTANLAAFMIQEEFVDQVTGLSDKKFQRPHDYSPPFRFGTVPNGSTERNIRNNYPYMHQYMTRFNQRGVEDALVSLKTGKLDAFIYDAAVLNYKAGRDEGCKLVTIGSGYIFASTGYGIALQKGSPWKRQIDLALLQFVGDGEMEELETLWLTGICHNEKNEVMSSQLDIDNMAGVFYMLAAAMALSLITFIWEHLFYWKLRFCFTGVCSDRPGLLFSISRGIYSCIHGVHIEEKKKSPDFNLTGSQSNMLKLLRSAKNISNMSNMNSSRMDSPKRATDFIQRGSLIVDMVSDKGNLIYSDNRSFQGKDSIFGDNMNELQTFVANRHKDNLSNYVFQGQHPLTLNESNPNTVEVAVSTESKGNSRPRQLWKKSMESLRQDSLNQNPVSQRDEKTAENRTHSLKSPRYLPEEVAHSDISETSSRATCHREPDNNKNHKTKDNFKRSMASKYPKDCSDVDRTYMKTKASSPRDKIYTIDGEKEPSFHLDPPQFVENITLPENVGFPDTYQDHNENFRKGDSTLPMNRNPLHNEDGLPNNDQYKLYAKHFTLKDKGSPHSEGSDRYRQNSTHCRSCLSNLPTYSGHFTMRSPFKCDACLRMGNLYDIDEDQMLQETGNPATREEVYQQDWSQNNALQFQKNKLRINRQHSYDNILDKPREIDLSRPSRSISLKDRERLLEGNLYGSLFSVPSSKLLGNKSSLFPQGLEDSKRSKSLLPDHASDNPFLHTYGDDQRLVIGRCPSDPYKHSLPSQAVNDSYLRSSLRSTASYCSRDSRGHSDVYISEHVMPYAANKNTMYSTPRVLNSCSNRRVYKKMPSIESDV
readout: Ki (nM)
Write it as a number; the unit nM goes unstated.

Using GluN1/GluN2A (Rattus norvegicus, UniProt P35439+Q00959) as the test system, report measured Ki of Cl.O=C(O)C(Cc1nnn[nH]1)[C@@H]1CCN[C@H]1C(=O)O (relative stereo) .
610

###

# tested.target: human EAAT3 (Homo sapiens)
# Sequence (P43005 1-524): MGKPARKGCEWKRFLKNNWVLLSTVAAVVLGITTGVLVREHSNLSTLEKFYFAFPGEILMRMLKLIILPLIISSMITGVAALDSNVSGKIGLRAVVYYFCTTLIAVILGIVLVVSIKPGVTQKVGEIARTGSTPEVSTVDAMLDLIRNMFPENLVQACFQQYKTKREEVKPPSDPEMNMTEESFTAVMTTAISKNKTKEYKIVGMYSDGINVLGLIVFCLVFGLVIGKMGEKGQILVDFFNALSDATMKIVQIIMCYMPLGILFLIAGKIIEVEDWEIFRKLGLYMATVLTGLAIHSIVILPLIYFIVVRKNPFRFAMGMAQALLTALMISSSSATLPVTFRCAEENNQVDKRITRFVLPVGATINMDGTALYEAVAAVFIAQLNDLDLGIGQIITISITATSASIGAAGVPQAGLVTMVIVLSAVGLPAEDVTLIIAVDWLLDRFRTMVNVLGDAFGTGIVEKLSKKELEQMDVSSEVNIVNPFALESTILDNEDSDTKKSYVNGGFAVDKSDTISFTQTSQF
# assay.info: [3H]-D-Asp uptake assay, EAAT3 stably expressed in HEK293 cells
# Assay type: cell-based
# condition.notes: read-out: IC50 EAAT3; HEK293 cells, [3H]-D-Asp uptake
readout: IC50

Write down IC50 measured for item Cl.O=C(O)C[C@H]1CCN[C@@H]1C(=O)O
> 300 µM
